# TEST SYSTEM: Glycogen synthase kinase-3 beta (Sus scrofa)
# PROTOCOL DESCRIPTION: Kinase activities were assayed in buffers containing substrate, enzyme, and inhibitor at 30 °C in the presence of 15 uM ATP/ [gamma-32P] ATP. 32P incorporation was measured with a scintillation counter. The IC50 is the inhibitor concentration, which inhibits 50% of kinase activity that catalyzes the transfer of the terminal phosphate from 32P l
# STUDY CONDITIONS: pH 7.5
We begin with a simple list: items and their reported IC50.

Cc1cc2c(c3c4ccccc4n(COCC[Si](C)(C)C)c13)C(=N)N(CCN(C)C)C2=O
> 10 µM
NCc1nc2c(c3c1[nH]c1ccccc13)CNC2=O
5.5 µM
Cc1nc2c(c3c1[nH]c1ccccc13)CN(CCN(C)C)C2=O
> 10 µM
Cc1c2c(c(CNC(=O)CN(C)C)c3c4ccccc4n(COCC[Si](C)(C)C)c13)C(=O)N(Cc1ccccc1)C2=O
> 10 µM
Cc1c2c(c(C#N)c3c4cc(Cl)ccc4n(COCC[Si](C)(C)C)c13)C(=O)N(C)C2=O
> 10 µM
Cc1c2c(c(CNC(=O)CN(C)C)c3c1[nH]c1ccccc13)C(=O)N(C)C2=O
> 10 µM
Cc1cc2c(c3c4ccccc4n(COCC[Si](C)(C)C)c13)CNC2=O
> 10 µM
Cc1nc2c(c3c1[nH]c1ccccc13)CNC2=O
> 10 µM
Cc1c2c(c(CNC(=O)CN(C)C)c3c4ccccc4n(COCC[Si](C)(C)C)c13)C(=O)N(C)C2=O
> 10 µM
Cc1c2c(c(CNC(=O)CN(C)C)c3c1[nH]c1ccccc13)C(=O)N(Cc1ccccc1)C2=O
> 10 µM

Can you share its IC50? I mean this compound: Cc1c2c(c(CN)c3c4ccccc4n(COCC[Si](C)(C)C)c13)C(=O)N(Cc1ccccc1)C2=O
> 10 µM

Can you share its IC50? I mean this compound: CN(C)CC(=O)NCc1nc2c(c3c1[nH]c1ccccc13)CNC2=O
8 µM

---

# TEST SYSTEM: Glycogen synthase kinase-3 beta (Sus scrofa)
# PROTOCOL DESCRIPTION: Kinase activities were assayed in buffers containing substrate, enzyme, and inhibitor at 30 °C in the presence of 15 uM ATP/ [gamma-32P] ATP. 32P incorporation was measured with a scintillation counter. The IC50 is the inhibitor concentration, which inhibits 50% of kinase activity that catalyzes the transfer of the terminal phosphate from 32P l
# STUDY CONDITIONS: pH 7.5
pIC50: −log10 of the molar value.
We begin with a simple list: items and their reported pIC50.

Reference set, count: 6
Cc1c2c(c(CNC(=O)CCN(C)C)c3c4ccccc4n(COCC[Si](C)(C)C)c13)C(=O)N(Cc1ccccc1)C2=O
< 5.00
O=C1c2nc(-c3ccccc3)c3[nH]c4ccccc4c3c2CN1Cc1ccccc1
< 5.00
Cc1c2c(c(C#N)c3c4ccccc4n(COCC[Si](C)(C)C)c13)C(=O)N(C)C2=O
< 5.00
Cc1c2c(c(CN)c3c4ccccc4n(COCC[Si](C)(C)C)c13)C(=O)N(C)C2=O
< 5.00
Cc1cc(C)c(S(=O)(=O)NCc2nc3c(c4c2[nH]c2ccccc24)CNC3=O)c(C)c1
5.82
Cc1c2c(c(CNC(=O)CCN(C)C)c3c4ccccc4n(COCC[Si](C)(C)C)c13)C(=O)N(C)C2=O
< 5.00

Can you share its pIC50? I mean this compound: Cc1cc2c(c3c1[nH]c1ccccc13)CNC2=O
< 5.00

Can you share its pIC50? I mean this compound: Cc1nc2c(c3c4ccccc4n(CCN(C)C)c13)CNC2=O
5.15

Can you share its pIC50? I mean this compound: Cc1cc2c(c3c4ccccc4n(COCC[Si](C)(C)C)c13)C(=O)N(CCN(C)C)C2=O
< 5.00
